Target: Renin (Homo sapiens, UniProt P00797)
Sequence (P00797 whole entry): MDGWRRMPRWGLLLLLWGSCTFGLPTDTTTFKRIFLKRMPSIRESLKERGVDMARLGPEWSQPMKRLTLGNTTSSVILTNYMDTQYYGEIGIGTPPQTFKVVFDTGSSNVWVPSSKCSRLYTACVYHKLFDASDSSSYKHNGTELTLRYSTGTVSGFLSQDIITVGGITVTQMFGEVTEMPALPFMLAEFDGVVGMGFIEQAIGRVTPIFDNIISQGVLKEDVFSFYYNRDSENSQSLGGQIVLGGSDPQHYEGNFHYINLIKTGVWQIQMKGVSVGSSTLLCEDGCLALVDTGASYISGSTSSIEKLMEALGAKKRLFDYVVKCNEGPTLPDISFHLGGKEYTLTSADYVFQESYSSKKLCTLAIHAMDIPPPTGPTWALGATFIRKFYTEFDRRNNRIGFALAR
Test: Inhibition of human plasma renin
pIC50: −log10 of the molar value. Where a SMILES comes first, the peptide text is derived from it. [ ]: non-standard residue; d: D form. The star is where a group is joined. Ala(2H-imidazol-2-yl) = N[C@@H](CC1N=CC=N1)C(=O)O; Sta = CC(C)C[C@H](N)[C@@H](O)CC(=O)O; NHCH2(2-pyridyl) = c1ccc(CN*)nc1; Boc = CC(C)(C)OC(=O)*
measured-metric: pIC50

The examples below pair each entry with its known result.
CC[C@H](C)[C@H](NC(=O)C(F)(F)[C@@H](O)[C@H](CC(C)C)NC(=O)[C@H](CC1N=CC=N1)NC(=O)[C@H](Cc1ccccc1)NC(=O)OC(C)(C)C)C(=O)NCc1ccccn1 :: 6.14
CC[C@H](C)[C@H](NC(=O)C(F)(F)[C@H](O)[C@H](CC(C)C)NC(=O)[C@H](CC1N=CC=N1)NC(=O)[C@H](Cc1ccccc1)NC(=O)OC(C)(C)C)C(=O)NCc1ccccn1 :: 7.92
CC[C@H](C)[C@H](NC(=O)C[C@H](O)[C@H](CC(C)C)NC(=O)[C@H](CC1N=CC=N1)NC(=O)[C@H](Cc1ccccc1)NC(=O)OC(C)(C)C)C(=O)NCc1ccccn1 (Boc-F[Ala(2H-imidazol-2-yl)][Sta]I-{NHCH2(2-pyridyl)}) :: 8.77

1. CC[C@H](C)[C@H](NC(=O)C(F)(F)[C@H](O)[C@H](CC1CCCCC1)NC(=O)[C@H](CC1N=CC=N1)NC(=O)[C@H](Cc1ccccc1)NC(=O)OC(C)(C)C)C(=O)NCc1ccccn1
2. CC[C@H](C)[C@H](NC(=O)CC(=O)[C@H](CC(C)C)NC(=O)[C@H](CC1N=CC=N1)NC(=O)[C@H](Cc1ccccc1)NC(=O)OC(C)(C)C)C(=O)NCc1ccccn1
3. CC[C@H](C)[C@H](NC(=O)C(F)(F)C(=O)[C@H](CC1CCCCC1)NC(=O)[C@H](CC1N=CC=N1)NC(=O)[C@H](Cc1ccccc1)NC(=O)OC(C)(C)C)C(=O)NCc1ccccn1
Lookup: Falling order of pIC50, please. Provide the ranking by listing each label in its place in the requested order.
Found: 1, 3, 2
(1: 9.24, 3: 8.60, 2: 7.47)

P. CC[C@H](C)[C@H](NC(=O)C(F)(F)C(=O)[C@H](Cc1ccccc1)NC(=O)[C@H](CC1N=CC=N1)NC(=O)[C@H](Cc1ccccc1)NC(=O)OC(C)(C)C)C(=O)NCc1ccccn1
Q. CC[C@H](C)[C@H](NC(=O)C(F)(F)[C@H](O)[C@H](Cc1ccccc1)NC(=O)[C@H](CC1N=CC=N1)NC(=O)[C@H](Cc1ccccc1)NC(=O)OC(C)(C)C)C(=O)NCc1ccccn1
R. CC[C@H](C)[C@H](NC(=O)C(F)(F)C(=O)[C@H](CC(C)C)NC(=O)[C@H](CC1N=CC=N1)NC(=O)[C@H](Cc1ccccc1)NC(=O)OC(C)(C)C)C(=O)NCc1ccccn1
Lookup: Sort entries by pIC50 from minimum to maximum value. Provide the ranking by listing each label in its place in the requested order.
Found: Q, P, R

These entries and their values trace back to ChEMBL document CHEMBL1123252.
